Molecular target: UniProt Q9H7D0
Experiment: Inhibition of N-terminal GFP tagged human DOCK5 (1212-1642 residues) expressed in HEK293T cells assessed as reduction in exchange activity incubated for 1 hr by Western blot analysis based Rac-GTP pull-down assay
pIC50: −log10 of the molar value.
Readout: pIC50

- Molecule: "O=S1(=O)N(c2ccccc2)C[C@H](O)[C@]12CCN(Cc1cccc(Cl)c1)C2 (racemic)"
  Experimental target: "UniProt Q9H7D0"
  Readout: "pIC50"
  Assay result: 4.62

###

Target: Dedicator of cytokinesis protein 5 (Homo sapiens, UniProt Q9H7D0)
Sequence (Q9H7D0 whole entry, the tested form may be a part): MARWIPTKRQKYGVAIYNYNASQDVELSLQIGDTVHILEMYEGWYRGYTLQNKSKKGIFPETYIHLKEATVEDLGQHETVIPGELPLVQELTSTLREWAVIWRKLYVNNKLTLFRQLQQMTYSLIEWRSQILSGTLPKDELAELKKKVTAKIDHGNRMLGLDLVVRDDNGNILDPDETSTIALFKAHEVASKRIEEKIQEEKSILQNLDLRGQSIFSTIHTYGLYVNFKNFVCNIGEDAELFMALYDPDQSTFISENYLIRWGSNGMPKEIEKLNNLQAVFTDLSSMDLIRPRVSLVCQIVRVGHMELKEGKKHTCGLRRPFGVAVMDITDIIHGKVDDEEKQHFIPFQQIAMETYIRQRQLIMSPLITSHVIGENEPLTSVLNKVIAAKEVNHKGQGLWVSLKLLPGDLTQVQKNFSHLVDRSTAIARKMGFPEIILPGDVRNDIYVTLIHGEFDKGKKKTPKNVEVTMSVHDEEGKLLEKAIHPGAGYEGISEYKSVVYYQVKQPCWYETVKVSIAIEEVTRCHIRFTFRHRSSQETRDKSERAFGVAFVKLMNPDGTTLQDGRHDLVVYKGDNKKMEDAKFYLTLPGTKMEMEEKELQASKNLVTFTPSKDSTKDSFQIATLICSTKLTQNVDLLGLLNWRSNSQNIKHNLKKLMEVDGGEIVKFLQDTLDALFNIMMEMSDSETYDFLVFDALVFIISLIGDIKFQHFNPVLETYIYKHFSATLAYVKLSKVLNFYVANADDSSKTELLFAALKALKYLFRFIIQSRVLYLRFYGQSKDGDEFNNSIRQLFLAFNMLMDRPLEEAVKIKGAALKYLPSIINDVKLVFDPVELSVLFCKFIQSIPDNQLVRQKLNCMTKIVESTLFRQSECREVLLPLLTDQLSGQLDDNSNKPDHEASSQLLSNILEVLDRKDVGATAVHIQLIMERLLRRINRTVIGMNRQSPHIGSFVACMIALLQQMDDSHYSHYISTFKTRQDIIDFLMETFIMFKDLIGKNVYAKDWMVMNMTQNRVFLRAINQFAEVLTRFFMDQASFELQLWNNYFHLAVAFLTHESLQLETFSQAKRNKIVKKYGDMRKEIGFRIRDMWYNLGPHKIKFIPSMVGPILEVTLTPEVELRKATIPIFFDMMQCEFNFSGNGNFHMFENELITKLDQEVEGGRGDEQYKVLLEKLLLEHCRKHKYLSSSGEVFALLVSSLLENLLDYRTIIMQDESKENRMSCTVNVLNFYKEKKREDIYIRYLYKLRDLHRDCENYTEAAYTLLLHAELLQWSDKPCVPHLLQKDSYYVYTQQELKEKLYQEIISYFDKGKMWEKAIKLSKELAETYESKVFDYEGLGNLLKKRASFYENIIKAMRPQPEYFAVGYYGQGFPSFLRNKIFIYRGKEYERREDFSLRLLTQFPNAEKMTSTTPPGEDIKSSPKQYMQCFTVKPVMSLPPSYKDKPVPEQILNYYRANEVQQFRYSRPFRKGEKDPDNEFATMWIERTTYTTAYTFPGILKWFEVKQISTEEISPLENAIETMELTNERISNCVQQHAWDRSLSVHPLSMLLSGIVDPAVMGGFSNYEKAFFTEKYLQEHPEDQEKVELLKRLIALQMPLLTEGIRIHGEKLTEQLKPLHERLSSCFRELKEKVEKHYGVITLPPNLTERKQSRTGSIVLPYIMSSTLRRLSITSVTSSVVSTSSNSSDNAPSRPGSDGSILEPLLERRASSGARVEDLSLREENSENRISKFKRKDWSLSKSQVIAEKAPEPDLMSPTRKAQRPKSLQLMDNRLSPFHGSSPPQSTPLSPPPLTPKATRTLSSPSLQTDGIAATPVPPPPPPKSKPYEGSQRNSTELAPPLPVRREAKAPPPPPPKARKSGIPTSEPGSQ
Assay: Inhibition of C-terminal 6-histidine tagged human DOCK5 (1212 to 1642 residues) expressed in Escherichia coli assessed as reduction in nucleotide exchange efficiency at 20 to 60 uM by N-methylanthraniloyl-GDP fluorescence based nucleotide exchange assay
Settings: dose microM 20-60
Calls of active or inactive are those of the source. No cut-off for these calls is given here.

- Compound: "O=S1(=O)N(c2ccccc2)C[C@H](O)[C@]12CCN(Cc1ccccc1Cl)C2 (racemic)"
  Experimental target: "Dedicator of cytokinesis protein 5 (Homo sapiens, UniProt Q9H7D0)"
  inhibition: "inactive"
- Compound: "O=S1(=O)N(c2ccccc2)C[C@H](O)[C@]12CCN(Cc1ccc(Cl)cc1)C2 (racemic)"
  Experimental target: "Dedicator of cytokinesis protein 5 (Homo sapiens, UniProt Q9H7D0)"
  inhibition: "45%"
- Compound: "Cn1cc(CN2CC[C@@]3(C2)[C@@H](O)CN(c2ccccc2)S3(=O)=O)c2ccccc21 (racemic)"
  Experimental target: "Dedicator of cytokinesis protein 5 (Homo sapiens, UniProt Q9H7D0)"
  inhibition: "inactive"
- Compound: "COc1ccc(N2CCC3(CCN(Cc4cccc(Cl)c4)C3)C2=O)cc1C (stereo not given)"
  Experimental target: "Dedicator of cytokinesis protein 5 (Homo sapiens, UniProt Q9H7D0)"
  inhibition: "inactive"
- Compound: "O=S1(=O)N(c2ccccc2)C[C@H](O)[C@]12CCN(Cc1ccc3c(c1)CCC3)C2 (racemic)"
  Experimental target: "Dedicator of cytokinesis protein 5 (Homo sapiens, UniProt Q9H7D0)"
  inhibition: "inactive"
- Compound: "O=C1N(c2cccc(F)c2)CCC12CCN(Cc1cccc(Cl)c1)C2 (stereo not given)"
  Experimental target: "Dedicator of cytokinesis protein 5 (Homo sapiens, UniProt Q9H7D0)"
  inhibition: "inactive"
- Compound: "COc1ccc(CN2CC[C@@]3(C2)[C@@H](O)CN(c2ccccc2)S3(=O)=O)cc1F (racemic)"
  Experimental target: "Dedicator of cytokinesis protein 5 (Homo sapiens, UniProt Q9H7D0)"
  inhibition: "inactive"
- Compound: "O=S1(=O)N(c2ccccc2)C[C@H](O)[C@]12CCN(Cc1cccc(Cl)c1)C2 (racemic)"
  Experimental target: "Dedicator of cytokinesis protein 5 (Homo sapiens, UniProt Q9H7D0)"
  inhibition: "inactive"
- Compound: "O=S1(=O)N(c2ccccc2)C[C@H](O)[C@]12CCN(Cc1ccc(Cl)c(Cl)c1)C2 (racemic)"
  Experimental target: "Dedicator of cytokinesis protein 5 (Homo sapiens, UniProt Q9H7D0)"
  inhibition: "67%"
- Compound: "O=S1(=O)N(c2ccccc2)C[C@H](O)[C@]12CCN(Cc1cnc3ccccc3c1)C2 (racemic)"
  Experimental target: "Dedicator of cytokinesis protein 5 (Homo sapiens, UniProt Q9H7D0)"
  inhibition: "inactive"

###

Test system: Osteoclast (Homo sapiens)
Test: Inhibition of resorption activity of human peripheral blood cell-derived osteoclasts incubated for 48 hrs by Kossa-staining based assay
Readout: IC50 (µM)

- Compound: "O=S1(=O)N(c2ccccc2)C[C@H](O)[C@]12CCN(Cc1ccc(Cl)cc1)C2 (racemic)"
  Readout: "IC50"
  Assay result: 3.44

FYI, the data here is from ChEMBL document CHEMBL4699636.
